# assayed.target: T1, human PD-L1 expressed on mammalian cells (human, UniProt Q9NZQ7 19-290)
# T1 construct: whole, on cells; also called PDL1-CHOK1 cells; PDL1-Raji cells
# T1 sequence (Q9NZQ7 19-290): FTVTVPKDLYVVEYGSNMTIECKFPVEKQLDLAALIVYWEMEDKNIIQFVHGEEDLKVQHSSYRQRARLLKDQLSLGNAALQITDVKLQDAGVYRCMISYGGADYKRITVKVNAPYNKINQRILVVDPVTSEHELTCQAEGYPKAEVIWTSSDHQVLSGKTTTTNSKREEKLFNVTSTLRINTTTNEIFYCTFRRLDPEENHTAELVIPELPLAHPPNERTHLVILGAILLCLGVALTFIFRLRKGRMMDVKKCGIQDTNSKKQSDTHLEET
# assay.protocol: flow cytometry (MFI) on PDL1-CHOK1 cells; EC50 table has no unit, x axis Antibodies(nM)
endpoint.label: pEC50
Numbers only, as −log10 of the molar value.

Look over these answered cases.
H1210 chimera (antibody, V domains shown, also called chimeric antibody) VH: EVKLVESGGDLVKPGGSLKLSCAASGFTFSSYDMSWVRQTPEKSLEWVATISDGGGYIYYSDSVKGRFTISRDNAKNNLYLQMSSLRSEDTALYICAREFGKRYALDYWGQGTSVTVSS VL: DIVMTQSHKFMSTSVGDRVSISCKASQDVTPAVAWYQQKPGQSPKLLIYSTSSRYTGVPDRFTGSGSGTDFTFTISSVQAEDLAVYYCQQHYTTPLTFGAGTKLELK; 9.02
Hu1210-15 (antibody, V domains shown, Hu1210 VH.4 x Vk.1; human gamma 1 / kappa constant domains) VH: EVQLVESGGGLVQPGGSLRLSCAASGFTFSSYDMSWVRQAPGKGLEWVSTISDGGGYIYYSDSVKGRFTISRDNAKNSLYLQMNSLRDEDTAVYYCAREFGKRYALDYWGQGTTVTVSS VL: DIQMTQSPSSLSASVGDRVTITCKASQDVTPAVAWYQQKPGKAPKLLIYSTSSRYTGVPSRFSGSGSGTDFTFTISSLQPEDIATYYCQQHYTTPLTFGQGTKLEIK; 8.69
Hu1210-14 (antibody, V domains shown, Hu1210 VH.3a x Vk.1; human gamma 1 / kappa constant domains) VH: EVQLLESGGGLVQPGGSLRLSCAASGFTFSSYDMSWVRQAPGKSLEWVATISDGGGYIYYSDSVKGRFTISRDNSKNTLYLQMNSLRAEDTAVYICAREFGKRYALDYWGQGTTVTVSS VL: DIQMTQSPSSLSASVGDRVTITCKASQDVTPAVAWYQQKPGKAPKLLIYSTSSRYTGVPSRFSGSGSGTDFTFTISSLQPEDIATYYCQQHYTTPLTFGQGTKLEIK; 8.84
Hu1210-16 (antibody, V domains shown, Hu1210 VH.4a x Vk.1; human gamma 1 / kappa constant domains) VH: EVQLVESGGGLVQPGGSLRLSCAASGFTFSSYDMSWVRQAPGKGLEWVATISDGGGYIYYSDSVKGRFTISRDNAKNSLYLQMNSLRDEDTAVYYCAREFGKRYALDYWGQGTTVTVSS VL: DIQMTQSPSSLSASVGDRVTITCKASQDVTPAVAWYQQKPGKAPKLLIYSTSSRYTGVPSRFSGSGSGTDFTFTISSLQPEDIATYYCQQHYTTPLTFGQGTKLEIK; 8.85

-- ask For Hu1210-13 (antibody, V domains shown, Hu1210 VH.3 x Vk.1; human gamma 1 / kappa constant domains) VH: EVQLLESGGGLVQPGGSLRLSCAASGFTFSSYDMSWVRQAPGKGLEWVSTISDGGGYIYYSDSVKGRFTISRDNSKNTLYLQMNSLRAEDTAVYYCAREFGKRYALDYWGQGTTVTVSS VL: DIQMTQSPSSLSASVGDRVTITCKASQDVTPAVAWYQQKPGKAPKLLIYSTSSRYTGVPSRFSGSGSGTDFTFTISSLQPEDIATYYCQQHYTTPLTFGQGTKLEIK , what is its reported pEC50?
-- reply 8.80
